Where do these numbers come from? They come from PubChem BioAssay (EPA / NIEHS).

read-out: Thyroid Hormone Responsive (THRSP), THRSP (gene 7069); assay: LTEA_HepaRG_THRSP: Life Technologies and Expression Analysis (LTEA) Assay for Thyroid Hormone Responsive (THRSP) using HepaRG (AID 2283536); conditions: mRNA level, 48 h; actives raise or lower the signal
Calls of active or inactive are those of the source. The calls were made as follows: active = hit-call score of the fitted dose curve at least 0.9, where 1 is the maximum; inactive = score below 0.9.
Can you answer with just one of these options? label 1 for active, label 0 for inactive

Some solved cases for reference:
• CC(=O)OCCC(C)C = label 0
• CCCCCCCCO = label 0

Exercise: What is the recorded call for this compound in the test? COC(=O)CC(=O)OC
Solution: label 0

Exercise: What is the recorded call for this compound in the test? CC(=O)c1ccc2c(c1)[C@H](NC(=O)c1ccc(F)cc1)[C@@H](O)C(C)(C)O2
Solution: label 0

Exercise: What is the recorded call for this compound in the test? O=C(CCCCCCCCc1cccnc1)N1CCC(C=C(c2ccccc2)c2ccccc2)CC1
Solution: label 1

###

read-out: Monokine induced gamma interferon (MIG), CXCL9 (gene 4283); assay: BSK_CASM3C_MIG: BioMAP Diversity Plus: CASM3C Assay for Monokine induced gamma interferon (MIG) Biomarker Activity (AID 2283048); details: primary human coronary artery smooth muscle cells; actives raise or lower the signal;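 also: MIG protein level measured by ELISA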
Calls of active or inactive are those of the source. How the source made its calls: active means hit-call score of the fitted dose curve at least 0.9, where 1 is the maximum; inactive means score below 0.9.
Can you answer with just one of these options? active, inactive

- Oc1ccc2c(c1)-c1ccccc1C2: inactive
- CCOCCO: inactive
- CC1(C)C(=O)N(Br)C(=O)N1Br: inactive
- O=C(CCCCCCCCc1cccnc1)N1CCC(C=C(c2ccccc2)c2ccccc2)CC1: active

Exercise: What is the recorded call for this compound in the test? COCCOCCOCCOC
Solution: inactive

Exercise: What is the recorded call for this compound in the test? CCCCCCc1ccc(O)cc1O
Solution: inactive

Exercise: What is the recorded call for this compound in the test? CCOc1cccc(-n2cc(C(=O)N3CCN(c4cc(C(=O)O)c5ccccc5c4)CC3)nc2-c2ccc(C)cc2)c1
Solution: active

###

read-out: Urokinase-type plasminogen activator receptor (uPAR), PLAUR (gene 5329); test: BSK_4H_uPAR: BioMAP Diversity Plus: 4H Assay for Urokinase-type plasminogen activator receptor (uPAR) Biomarker Activity (AID 2283030); details: primary human endothelial cells (HUVEC); actives raise or lower the signal
The source made the active and inactive calls. The calls were made as follows: active = hit-call score of the fitted dose curve at least 0.9, where 1 is the maximum; inactive = score below 0.9.
Can you answer with just one of these options? active, inactive

- CC(=O)OCCC(C)C: inactive
- COCCOCCOCCOC: inactive
- CNS(=O)(=O)c1cc(C(=O)N2CCC(CCN3C4CCC3CC(n3c(C)nc5ccccc53)C4)(c3cccc(F)c3)CC2)c(Cl)cc1F (stereo not drawn): active
- Nc1nc2ncc(CNc3ccc(C(=O)N[C@@H](CCC(=O)O)C(=O)O)cc3)nc2c(=O)[nH]1: inactive
- CC1(C)C(=O)N(Br)C(=O)N1Br: inactive
- CC(C)CCCCCCOC(=O)c1ccc(C(=O)OCCCCCCC(C)C)c(C(=O)OCCCCCCC(C)C)c1: inactive

Please examine the following record next.
Exercise: What is the recorded call for this compound in the test? Clc1nc(Cl)c(Cl)c(Cl)c1Cl
Solution: inactive

###

experiment: CCTE_Simmons_MITO_basal_resp_rate: CCTE's HepG2 Seahorse XF Respirometric Screening Assay at Basal Respiratory State, Simmons Lab (AID 2284001); conditions: actives raise or lower the signal
Activity calls are given as the source filed them. Rule for the calls: active = hit-call score of the fitted dose curve at least 0.9, where 1 is the maximum; inactive = score below 0.9.
Can you answer with just one of these options? active, inactive

Some solved cases for reference:
* CC(C)=CCC/C(C)=C/CO | active
* COc1ccc2sc(C(=O)Nc3nnn[nH]3)c(OC(C)C)c2c1 | inactive
* COc1ccc(/C=C/S(=O)(=O)NC(=O)c2ccc(C)cc2Cl)cc1 | active
* COc1cccc(-c2ccc(/C=C\CN3CCCCCC3)cc2Cl)c1 | inactive
* CCOC(=O)c1ccc(C2CCC(NC[C@H](O)COc3ccc(O)c(NS(C)(=O)=O)c3)CC2)cc1 (stereo partly specified) | inactive

Exercise: What is the recorded call for this compound in the test? Cc1ccc(N)cc1O
Solution: active

Exercise: What is the recorded call for this compound in the test? Nc1cccc(N)c1
Solution: inactive

Exercise: What is the recorded call for this compound in the test? CCOC(=O)COc1ccc2c(c1)CC(NCC(O)c1cccc(Cl)c1)CC2 (stereo unspecified)
Solution: active

Exercise: What is the recorded call for this compound in the test? O=C(CCCCCCCCc1cccnc1)N1CCC(C=C(c2ccccc2)c2ccccc2)CC1
Solution: inactive

Exercise: What is the recorded call for this compound in the test? CC(C)=CCCC(C)=CC=O
Solution: inactive

Exercise: What is the recorded call for this compound in the test? Fc1ccccc1[C@@H](F)COC1CCC(Nc2ncnc3[nH]ncc23)CC1 (stereo partly specified)
Solution: active
